Each entry below carries its reported IC50.
Molecular target: (recombinant) catalytic domain of human Bub1 (amino acids 704-1085) (Homo sapiens (Human), UniProt O43683)
Sequence (O43683 704-1085): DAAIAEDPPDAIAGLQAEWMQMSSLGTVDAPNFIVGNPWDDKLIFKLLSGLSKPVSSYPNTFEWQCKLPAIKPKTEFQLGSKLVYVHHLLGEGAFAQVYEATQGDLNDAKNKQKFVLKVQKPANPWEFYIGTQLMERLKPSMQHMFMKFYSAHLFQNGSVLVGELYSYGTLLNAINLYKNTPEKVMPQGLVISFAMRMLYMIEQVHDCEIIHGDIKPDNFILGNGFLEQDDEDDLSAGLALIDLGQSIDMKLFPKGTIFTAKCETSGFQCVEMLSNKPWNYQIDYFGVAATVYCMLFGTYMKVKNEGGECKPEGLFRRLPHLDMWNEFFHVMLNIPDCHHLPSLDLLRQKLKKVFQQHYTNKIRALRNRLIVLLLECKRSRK
Test: Bub1 kinase assay (TR-FRET)
Conditions: ATP 10 μM final, peptide substrate 1 μM final, 60 min at 22° C., read-out: Biological Assay: Bub1 kinase assay median IC50
Method: Examples were tested in selected biological assays one or more times. When tested more than once, data are reported as either average values or as median values, wherein • the average value, also referred to as the arithmetic mean value, represents the sum of the values obtained divided by the number of times tested, and • the median value represents the middle number of the group of values when ranked in ascending or descending order. […]
Respond with the bare value in nM.

Field: example entries. Status: answers known.
INSERT INTO measurements (molecule, reported_value) VALUES
  ('O=C1CCCc2[nH]c(-c3ccnc(NC(=S)NCC(F)(F)F)c3)c(Nc3ccccc3)c21', 1150),
  ('CC1(C)CC(=O)c2c([nH]c(-c3ccncc3)c2Nc2cccc(Br)c2)C1', 15.4),
  ('CC(C)[C@H]1CC(=O)c2c([nH]c(-c3ccnc(N)c3)c2Nc2ccc(F)cc2)C1 (stereo in doubt)', 53.1),
  ('CC1(C)CC(=O)c2c([nH]c(-c3ccnc(NCC(F)(F)F)c3)c2Nc2ccccc2)C1', 600),
  ('CC1(C)CC(=O)c2c([nH]c(-c3ccnc(N4CCC4)c3)c2Nc2ccccc2)C1', 12700);

Please give the documented IC50 of O=C1CC(CCl)Cc2[nH]c(-c3ccncc3)c(Nc3ccccc3)c21 (stereo not drawn)
5.05

Quick one: give measured IC50 for CC1(C)CC(=O)c2c([nH]c(-c3ccnc(NC(=O)c4ccn[nH]4)c3)c2Nc2ccccc2)C1
7.19

Check the records and state IC50 for CC1(C)CC(=O)c2c([nH]c(-c3ccncc3)c2Nc2ccccc2)C1O (stereo not drawn)
10

Name the recorded IC50 of the molecule listed here: CC1(C)CC(=O)c2c([nH]c(-c3ccncc3)c2Nc2cccc(OC(F)(F)F)c2)C1
164

Give me measured IC50, please, for this molecule: CC1(C)CC(=O)c2c([nH]c(-c3ccncc3)c2Nc2ccc3[nH]ncc3c2)C1
95.2

Determine its reported IC50: CC(=O)Nc1cc(-c2[nH]c3c(c2Nc2ccccc2)C(=O)CC(C(C)C)C3)ccn1 (stereo not drawn)
10.9

Respond only with IC50 recorded for C[C@H](C(=O)Nc1cc(-c2[nH]c3c(c2Nc2ccccc2)C(=O)CCC3)ccn1)N(C)C(=O)OC(C)(C)C
738

Return value of IC50 for input CC(C)(C)OC(=O)N1CC(C(=O)Nc2cc(-c3[nH]c4c(c3Nc3ccccc3)C(=O)CCC4)ccn2)C1 , no commentary.
38

State its IC50: CC1(C)CC(=O)c2c([nH]c(-c3ccncc3)c2Nc2cccc(C(C)(C)C)c2)C1
8640

Give me measured IC50, please, for this molecule: CC(=O)Nc1cc(-c2[nH]c3c(c2Nc2ccc(F)c(F)c2)C(=O)CCC3)ccn1
101

Give recorded IC50. O=C(COCc1ccco1)Nc1cc(-c2[nH]c3c(c2Nc2ccccc2)C(=O)CCC3)ccn1
6.68

Identify IC50 associated with the molecule CC1(C)CC(=O)c2c([nH]c(-c3ccncc3)c2Nc2ccc(F)c(CO)c2)C1
2630

Give reported IC50 value for Cn1ccnc1COCC(=O)Nc1cc(-c2[nH]c3c(c2Nc2ccccc2)C(=O)CCC3)ccn1
8.63

Determine from records and report IC50 for O=C(Cc1cscn1)Nc1cc(-c2[nH]c3c(c2Nc2ccccc2)C(=O)CCC3)ccn1
48.4

Please give measured IC50 of the following entry: CCCNC(=S)Nc1cc(-c2[nH]c3c(c2Nc2ccccc2)C(=O)CCC3)ccn1
292

Give a short answer stating reported IC50 for Cn1ccc(C(=O)Nc2cc(-c3[nH]c4c(c3Nc3ccccc3)C(=O)CC(C)(C)C4)ccn2)n1 .
6.14

Reference for the values: patent US10428044B2
